- target_or_test_system: human plasmin (human, UniProt P00747)
- Sequence (P00747 97-810 limits assumed): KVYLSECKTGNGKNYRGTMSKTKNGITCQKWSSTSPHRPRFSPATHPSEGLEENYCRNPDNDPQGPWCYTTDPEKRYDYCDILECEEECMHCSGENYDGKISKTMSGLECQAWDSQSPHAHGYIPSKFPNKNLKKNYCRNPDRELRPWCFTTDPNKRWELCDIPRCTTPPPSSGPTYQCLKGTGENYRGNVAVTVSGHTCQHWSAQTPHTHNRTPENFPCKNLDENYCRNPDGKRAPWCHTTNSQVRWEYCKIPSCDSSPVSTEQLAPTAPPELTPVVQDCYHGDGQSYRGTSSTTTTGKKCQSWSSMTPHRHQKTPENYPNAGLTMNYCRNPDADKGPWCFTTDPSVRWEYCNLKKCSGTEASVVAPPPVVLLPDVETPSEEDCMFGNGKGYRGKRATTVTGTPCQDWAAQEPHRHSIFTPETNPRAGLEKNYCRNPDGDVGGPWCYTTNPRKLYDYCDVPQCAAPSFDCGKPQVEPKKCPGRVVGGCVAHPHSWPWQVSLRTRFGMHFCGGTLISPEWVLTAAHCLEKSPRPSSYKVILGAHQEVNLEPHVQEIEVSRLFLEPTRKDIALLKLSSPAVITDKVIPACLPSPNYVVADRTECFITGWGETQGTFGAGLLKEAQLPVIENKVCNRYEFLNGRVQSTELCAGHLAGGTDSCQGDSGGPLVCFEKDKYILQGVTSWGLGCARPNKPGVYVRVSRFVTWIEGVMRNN
readout_name: Plasmin IC50 [nM], inhibition of enzymatic activity, fluorogenic substrate (nM)

TFPI mut5 (SEQ ID NO: 8) (designed binder) MHSFCAFKADDGPCRAAHPRWWFNIFTRQCEEFIYGGCEGNQNRFESLEECKKMCTRD
267
TFPI mut15EA (SEQ ID NO: 31) (designed binder) EAMHSFCAFKAVTGPCRAAMKRFWFNIFTRQCEEFIYGGCEGNQNRFESLEECKKMCTRD
48
TFPI mut10EA (SEQ ID NO: 28) (designed binder) EAMHSFCAFKAYTGPCRAAIIRFFFNIFTRQCEEFIYGGCEGNQNRFESLEECKKMCTRD
77
TFPI mut13EA (SEQ ID NO: 18) (designed binder) EAMHSFCAFKAVTGPCKARIIRFFFNIFTRQCEEFIYGGCEGNQNRFESLEECKKMCTRD
47
TFPI random (SEQ ID NO: 10) (designed binder) MHSFCAFKAETGPCRAAMKRFFFNIFTRQCEEFIYGGCEGNQNRFESLEECKKMCTRD
27
TFPI mut2 (SEQ ID NO: 7) (designed binder) MHSFCAFKADDGPCRAAMKRFFFNIFTRQCEEFIYGGCEGNQNRFESLEECKKMCTRD
195
TFPI mut11EA (SEQ ID NO: 29) (designed binder) EAMHSFCAFKAVTGPCRASFPRWFFNIFTRQCEEFIYGGCEGNQNRFESLEECKKMCTRD
19
TFPI mut12EA (SEQ ID NO: 30) (designed binder) EAMHSFCAFKASTGPCKARIIRFFFNIFTRQCEEFIYGGCEGNQNRFESLEECKKMCTRD
56
TFPI mut8EA (SEQ ID NO: 26) (designed binder) EAMHSFCAFKAYTGPCKAAIIRFFFNIFTRQCEEFIYGGCEGNQNRFESLEECKKMCTRD
83
TFPI mut6 (SEQ ID NO: 9) (designed binder) MHSFCAFKADDGPCKAIMKRFWFNIFTRQCEEFIYGGCEGNQNRFESLEECKKMCTRD
497
